tested on: Zymoseptoria tritici (SEPTTR-184); assay: Cyp51 dsRNA tile (fragment) foliar application bioassay (Example 6); assay type: in vivo; details: 3 days curative; calculated from disease control
property name: ED50 (ppm) SEPTTR-184 3DC

molecule	reported measurement
YFP: non-target dsRNA control (YFP, yellow fluorescent protein coding region) (nucleic acid, double-stranded RNA; synthesized partial coding region) TGTAGAAATCCTTCAGCTCGGGGCCGTACTTGGCGAAGCACTGGGCGCCGTAGGTCAGGGTGGTCACCAGGGTGCTCCAGGGCACGGGCACATCGCCGGTGGTGCAGATGAACTGGGCATCCACCTTGCCCACGCTGGCATCGCCGTAGCCCTTGCCGCGGATGCTGAAGGTGTGGCCATCCACATTGCCCTCCATCTCCACCACGTAGGGGATCTTGCCGTGGAACAGCAGGGCGCCGCTGGAGCCCAT	>200 ppm
MgCyp51-T5: dsRNA tile of Zymoseptoria tritici Cyp51, 133 bp, location 1316-1448 (nucleic acid, listed as Zymoseptoria tritici) AATACAAGCACCTGTCCCCGACGACTGCCCTAGGAAGCATCGCCGAGGAGAAAGAAGACTATGGCTACGGCCTGGTAAGCAAGGGCGCGGCGTCGCCATACTTACCCTTTGGTGCGGGACGACACAGATGTAT	<3.125 ppm
